Data provenance: ChEMBL document CHEMBL3217674

Recorded pEC50 values for a group of molecules are listed next.
- protocol text: Induction of BET (unknown origin)-mediated ApoA1 expression by cell-based assay relative to control
- condition summary: Homo sapiens
pEC50: −log10 of the molar value.
readout name: pEC50

>>> measurement("CCNC(=O)C[C@@H]1N=C(c2ccc(Cl)cc2)c2cc(OC)ccc2-n2c(C)nnc21 [MOLIBRESIB]")
5.15
>>> measurement("Cc1nnc2n1-c1ccccc1C(c1ccccc1)=N[C@H]2NC(=O)OCc1ccccc1")
5.36
